Each entry below carries its reported pIC50.
Biological target: MDM2 (Homo sapiens)
Sequence (Q00987 1-125): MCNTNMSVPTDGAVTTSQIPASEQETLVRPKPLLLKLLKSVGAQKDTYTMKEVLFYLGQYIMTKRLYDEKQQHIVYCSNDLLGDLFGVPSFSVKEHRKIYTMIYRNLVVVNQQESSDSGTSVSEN
Assay: Competitive fluorescence polarization assay for MDM2
Assay type: binding
Conditions: competitive FP assay, MDM2; read-out: IC50 (MDM2)
pIC50: −log10 of the molar value. Where a SMILES comes first, the peptide text is derived from it. Bridges are numbered along the chain shown (N, C = ends). [ ]: non-standard residue; d: D form. The star is where a group is joined. Palmitoyl = CCCCCCCCCCCCCCCC(=O)*; R8 = C=CCCCCCC[C@@](C)(N)C(=O)O; Cba = N[C@@H](CC1CCC1)C(=O)O; Chg = N[C@H](C(=O)O)C1CCCCC1; S5 = C=CCCC[C@](C)(N)C(=O)O; Nle = CCCC[C@H](N)C(=O)O; Ac3c = NC1(C(=O)O)CC1

| molecule | tested-on | pIC50 |
| --- | --- | --- |
| CC(=O)N[C@@H](C)C(=O)N[C@@H](CC(C)C)C(=O)N[C@H](C(=O)N[C@@H](Cc1ccccc1)C(=O)N[C@]1(C)CCCCCCC=CCCC[C@@](C)(C(=O)N[C@@H](CO)C(=O)N[C@@H](C)C(=O)N[C@@H](C)C(=O)N[C@H](C)C(N)=O)NC(=O)[C@H](CC2CCC2)NC(=O)[C@H](CCC(N)=O)NC(=O)[C@H](C)NC(=O)[C@H](Cc2c[nH]c3ccccc23)NC(=O)[C@H](Cc2ccc(O)cc2)NC(=O)[C@H](CCC(=O)O)NC1=O)[C@@H](C)O (single isomer, unassigned) | MDM2 (Homo sapiens) | > 8.00 |
| CCCCCCCCCCCCCCCC(=O)N[C@@H](CCC(=O)O)C(=O)N[C@H](C(=O)N[C@@H](Cc1ccccc1)C(=O)N[C@]1(C)CCCCCCC=CCCC[C@@](C)(C(=O)N[C@@H](CO)C(=O)N[C@@H](C)C(=O)N[C@@H](C)C(N)=O)NC(=O)[C@H](CC2CCC2)NC(=O)[C@H](CCC(N)=O)NC(=O)[C@H](C)NC(=O)[C@H](Cc2c[nH]c3ccccc23)NC(=O)[C@H](Cc2ccc(O)cc2)NC(=O)[C@H](CCC(=O)O)NC1=O)[C@@H](C)O [compound 250] (Palmitoyl-ETF[R8]EYWAQ[Cba][S5]SAA-NH2; staple 4-11) | MDM2 (Homo sapiens) | 6.00 to 7.00 |
| CCCC[C@H](NC(=O)[C@H](C)NC(=O)[C@H](C)NC(=O)[C@]1(C)CCCC=CCCCCCC[C@@](C)(NC(=O)[C@H](Cc2ccccc2)NC(=O)[C@@H](NC(=O)[C@H](CC(C)C)NC(C)=O)[C@@H](C)O)C(=O)N[C@@H](C)C(=O)N[C@@H](Cc2ccc(O)cc2)C(=O)N[C@@H](Cc2c[nH]c3ccccc23)C(=O)N[C@@H](C)C(=O)N[C@@H](CCC(N)=O)C(=O)N[C@@H](CC(C)C)C(=O)N1)C(=O)NC(C)(C)C(N)=O (single isomer, unassigned) | MDM2 (Homo sapiens) | 7.00 to 8.00 |
| CC[C@H](C)[C@H](NC(C)=O)C(=O)N[C@H](C(=O)N[C@@H](Cc1ccccc1)C(=O)N[C@]1(C)CCCCCCC=CCCC[C@@](C)(C(=O)N[C@@H](C)C(=O)N[C@@H](Cc2c[nH]cn2)C(=O)N[C@@H](Cc2ccccc2)C(=O)N[C@@H](C)C(N)=O)NC(=O)[C@H](CC(C)C)NC(=O)[C@H](CCC(N)=O)NC(=O)[C@H](C(C)C)NC(=O)[C@H](Cc2c[nH]c3ccccc23)NC(=O)[C@H](Cc2c[nH]cn2)NC(=O)[C@H](CCC(=O)O)NC1=O)[C@@H](C)O (single isomer, unassigned) | MDM2 (Homo sapiens) | 7.00 to 8.00 |
| CC[C@H](C)[C@H](NC(C)=O)C(=O)N[C@H](C(=O)N[C@@H](Cc1ccccc1)C(=O)N[C@]1(C)CCCCCCC=CCCC[C@@](C)(C(=O)N[C@@H](C)C(=O)N[C@@H](C)C(=O)N[C@H](C(=O)N[C@H](C)C(N)=O)[C@@H](C)CC)NC(=O)[C@H](CC(C)C)NC(=O)[C@H](CCC(N)=O)NC(=O)[C@H](C(C)C)NC(=O)[C@H](Cc2c[nH]c3ccccc23)NC(=O)[C@H](Cc2ccc(O)cc2)NC(=O)[C@H](Cc2ccccc2)NC1=O)[C@@H](C)O [compound 177] (Ac-ITF[R8]FYWVQL[S5]AAI[dA]-NH2; staple 4-11) | MDM2 (Homo sapiens) | 7.00 to 8.00 |
| CC(=O)N[C@@H](Cc1ccccc1)C(=O)N[C@]1(C)CCCCCCC=CCCC[C@@](C)(C(=O)N[C@@H](C)C(=O)N[C@@H](C)C(=O)N[C@H](C(N)=O)C2CCCCC2)NC(=O)[C@H](CC(C)C)NC(=O)C2(CC2)NC(=O)[C@H](CCC(=O)O)NC(=O)[C@H](Cc2c[nH]c3ccccc23)NC(=O)[C@H](Cc2ccc(O)cc2)NC(=O)[C@H](C)NC1=O [compound 20] (Ac-F[R8]AYWE[Ac3c]L[S5]AA[Chg]-NH2; staple 2-9) | MDM2 (Homo sapiens) | 6.00 to 7.00 |
| CCCC[C@H](NC(=O)[C@H](C)NC(=O)[C@H](C)NC(=O)[C@]1(C)CCCC=CCCCCCC[C@@](C)(NC(=O)[C@H](Cc2ccccc2)NC(=O)[C@@H](NC(=O)[C@H](C)NC(=O)[C@H](C)NC(C)=O)[C@@H](C)O)C(=O)N[C@@H](CCC(=O)O)C(=O)N[C@@H](Cc2ccc(O)cc2)C(=O)N[C@@H](Cc2c[nH]c3ccccc23)C(=O)N[C@@H](C)C(=O)N[C@@H](CCC(N)=O)C(=O)N[C@@H](CC(C)C)C(=O)N1)C(=O)N[C@@H](C)C(N)=O [compound 374] (Ac-AATF[R8]EYWAQL[S5]AA[Nle]A-NH2; staple 5-12) | MDM2 (Homo sapiens) | 7.00 to 8.00 |
| CC(=O)N[C@@H](CC(C)C)C(=O)N[C@H](C(=O)N[C@@H](Cc1ccccc1)C(=O)N[C@]1(C)CCCCCCC=CCCC[C@@](C)(C(=O)N[C@@H](CO)C(=O)N[C@@H](C)C(=O)N[C@@H](CO)C(N)=O)NC(=O)[C@H](CC(C)C)NC(=O)[C@H](CCC(N)=O)NC(=O)[C@H](C)NC(=O)[C@H](Cc2c[nH]c3ccccc23)NC(=O)[C@H](Cc2ccc(O)cc2)NC(=O)[C@H](C(C)C)NC1=O)[C@@H](C)O (single isomer, unassigned) | MDM2 (Homo sapiens) | > 8.00 |
